This collection of values is drawn from paper PMC9574860.

target: Parkinson's disease protein 7 (PARK7/DJ1) (human, UniProt Q99497); experiment: primary screen, percent inhibition; read as competition with a fluorescent probe by fluorescence polarization; higher = more effect of the substance; conditions: 100 µM
Sequence (Q99497 whole entry, looked up): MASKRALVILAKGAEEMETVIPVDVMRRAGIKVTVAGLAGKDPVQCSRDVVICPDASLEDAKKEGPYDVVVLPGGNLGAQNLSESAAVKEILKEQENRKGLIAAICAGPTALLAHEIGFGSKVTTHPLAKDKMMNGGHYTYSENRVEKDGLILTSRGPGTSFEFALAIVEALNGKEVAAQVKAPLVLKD
About 400 (5.1%) of roughly 7,900 compounds showed an effect of 50% or more. Many of the other results were omitted from the sample, so strong results are more common in it than they were.
READOUT_LABEL: Inhibition % (%)
Numeric only. Scale: %

Answered examples (2):
>  <SUBSTANCE_SMILES>
O=C(CCl)c1ccc(O)cc1

>  <SYSTEM_UNDER_TEST>
Parkinson's disease protein 7 (PARK7/DJ1) (human, UniProt Q99497)

>  <Inhibition % / %>
86.7

$$$$
>  <SUBSTANCE_SMILES>
Cc1ccc(C(=O)CCl)cc1

>  <SYSTEM_UNDER_TEST>
Parkinson's disease protein 7 (PARK7/DJ1) (human, UniProt Q99497)

>  <Inhibition % / %>
32.3

$$$$

Now consider the entry below.
// O=C(CCl)c1ccc(O)cc1O : Inhibition % value = 81.9
